Sourced from patent EP1157985A1

Target: Human vitronectin receptor (αvβ3) (Homo sapiens, UniProt P05106+P06756)
Construct: Human vitronectin receptor (αvβ3) was purified from human placenta; from tissue; host or cells: human placenta
Assay: Vitronectin adhesion assay (solid phase receptor assay, competition with biotinylated vitronectin)
Type: binding
Counter-ions that a name gives are not always drawn.
reported-endpoint: IC50
Please give the number followed by its unit.

Documented IC50 of CC(C)CC(=O)NC(Cc1ccc(NC(=O)c2cccc(NC(=N)N)c2)cc1)C(=O)O (stereo not shown) [Example 106, bis(trifluoroacetate) salt] : 5 nM

###

Biological target: Human vitronectin receptor (αvβ3) (Homo sapiens, UniProt P05106+P06756)
Construct: Human vitronectin receptor (αvβ3) was purified from human placenta; from tissue; host or cells: human placenta
Assay: Vitronectin adhesion assay (solid phase receptor assay, competition with biotinylated vitronectin)
Type: binding
Details: purified receptor from human placenta; 1 nM biotinylated vitronectin; highest concentration tested 1.0 x 10^-4 M; read-out: AvB3 IC50
Counter-ions that a name gives are not always drawn.
Record form. Attribute: pIC50. Fill in for each entry.
Numbers only, as −log10 of the molar value.

compound	pIC50
CC(C)(C)OC(=O)N[C@H](Cc1ccc(NC(=O)c2cccc(NC(=N)N)c2)cc1)C(=O)O [Example 57, monohydrate trifluoroacetate salt]	7.84
CC(Oc1ccc(NC(=O)c2cccc(NC(=N)N)c2)cc1)C(=O)O (stereo not shown) [Example 85, trifluoroacetate salt]	6.08
CN(C(=O)c1cccc(NC(=N)N)c1)c1ccc(CCC(=O)O)cc1 [Example 61, monohydrate trifluoroacetate salt]	6.33
CC(C)OC(=O)NC(Cc1ccc(NC(=O)c2cccc(Nc3n[nH]c(N)n3)c2)cc1)C(=O)O (racemic) [Example 103, trifluoroacetate salt]	6.57
CCOC(=O)CCc1ccc(N(C)C(=O)c2cccc(NC(=N)N)c2)cc1 [Example 60, trifluoroacetate salt]	5.47

I'm hoping you can list pIC50 for every compound here, please.
1. CCOC(=O)COc1ccc(NC(=O)c2cccc(NC(=N)N)c2)cc1 [Example 89, trifluoroacetate salt]
2. CCCCS(=O)(=O)NC(Cc1ccc(NC(=O)c2cccc(NC(=N)N)c2)cc1)C(=O)O (stereo not shown) [Example 52, trifluoroacetate salt]
3. N=C(N)Nc1cccc(C(=O)Nc2ccc(SCC(=O)O)cc2)c1 [Example 82]
4. CC(C)CC(=O)N[C@@H](Cc1ccc(NC(=O)c2cc(NC3=NCCCN3)cc(C(F)(F)F)c2)cc1)C(=O)O [Example 107, trifluoroacetate salt]
5. CCOC(=O)C(CC(=O)O)c1ccc(NC(=O)c2cccc(NC(=N)N)c2)cc1 (stereo not shown) [Example 71, trifluoroacetate salt]
6. N=C(N)Nc1cccc(C(=O)Nc2ccc(CC(NC(=O)N3CCCCC3)C(=O)O)cc2)c1 (stereo not shown) [Example 126, trifluoroacetate salt]
7. NC(=O)Nc1cccc(C(=O)Nc2ccc(CCC(=O)O)cc2)c1 [Example 24]

1. 5.68
2. 9.48
3. 6.58
4. 9.30
5. 7.41
6. 8.70
7. 5.91

###

Molecular target: Human vitronectin receptor (αvβ3) (Homo sapiens, UniProt P05106+P06756)
Construct: Human vitronectin receptor (αvβ3) was purified from human placenta; from tissue; host or cells: human placenta
Assay: Vitronectin adhesion assay (solid phase receptor assay, competition with biotinylated vitronectin)
Assay type: binding
Conditions: read-out: AvB3 IC50; purified receptor from human placenta; 1 nM biotinylated vitronectin; highest concentration tested 1.0 x 10^-4 M
Structures can show the parent of a compound that is named as a salt.
reported-endpoint: pIC50
Answers are plain numbers, as −log10 of the molar value.

Use the examples below as a reference point.
molecule	pIC50
Cc1cc(C)c(S(=O)(=O)NC(Cc2ccc(NC(=O)c3cccc(NC(=N)N)c3)cc2)C(=O)O)c(C)c1 (stereo not shown) [Example 121, trifluoroacetate salt]	9.00
CCCCS(=O)(=O)NC(Cc1ccc(NC(=O)c2cccc(NC(=N)N)c2)cc1)C(=O)OCC (stereo not shown) [Example 41, trifluoroacetate salt]	5.97
CC(C)(C)OC(=O)CCc1ccc(CCNC(=O)c2cccc(NC(=N)N)c2)cc1 [Example 58, monohydrate trifluoroacetate salt]	4.32

Below: the item to evaluate.
Documented pIC50 of CC(C)OC(=O)NC(Cc1ccc(NC(=O)c2cccc(NC(=N)N)c2)c(Cl)c1)C(=O)O (stereo not shown) [Example 127, trifluoroacetate salt] : 9.22

###

Target: Human fibrinogen receptor (αIIbβ3) (Homo sapiens, UniProt P05106+P08514)
Construct: Human fibrinogen receptor (αIIbβ3) was purified from outdated platelets
Experiment: Purified IIb/IIIa receptor assay (solid phase receptor assay, competition with biotinylated vitronectin)
Settings: purified receptor from outdated platelets; 1 nM biotinylated vitronectin; highest concentration tested 1.0 x 10^-4 M
Structures can show the parent of a compound that is named as a salt.
Record form. Attribute: IC50. Fill in for each entry.
Give bare numbers, in nM.

Use the examples below as a reference point.
compound	reported-endpoint	val
CCOC(=O)CS(=O)(=O)c1ccc(NC(=O)c2cccc(NC(=N)N)c2)cc1 [Example 80, monohydrate trifluoroacetate salt]	IC50	19800
N=C(N)Nc1cccc(C(=O)Nc2ccc(CC(NC(=O)N3CCCCC3)C(=O)O)cc2)c1 (stereo not shown) [Example 126, trifluoroacetate salt]	IC50	36
O=C(Nc1ccc(CC(NS(=O)(=O)c2ccccc2)C(=O)O)cc1)c1cccc(NC2=NCCN2)c1 (stereo not shown) [Example 112, trifluoroacetate salt]	IC50	13
CCOC(=O)C(CC(=O)O)c1ccc(NC(=O)c2cccc(NC(=N)N)c2)cc1 (stereo not shown) [Example 71, trifluoroacetate salt]	IC50	8.3
CC(C)OC(=O)NC(Cc1ccc(NC(=O)c2cccc(NC3=NC(=O)CN3)c2)cc1)C(=O)O (stereo not shown)	IC50	1260
CCOC(=O)C(Cc1ccc(NC(=O)c2cccc(NC(=N)N)c2)cc1)NC(=O)OC(C)(C)C (stereo not shown) [Example 44, trifluoroacetate salt]	IC50	4310

Below: the item to evaluate.
Reading of IC50 for COc1cc(NC(=O)c2cccc(NC(=N)N)c2)ccc1CCC(=O)O [Example 115, trifluoroacetate salt] with Human fibrinogen receptor (αIIbβ3) (Homo sapiens, UniProt P05106+P08514): 173

###

Record form. Attribute: IC50. Fill in for each entry.
Target: Human fibrinogen receptor (αIIbβ3) (Homo sapiens, UniProt P05106+P08514)
Construct: Human fibrinogen receptor (αIIbβ3) was purified from outdated platelets
Experiment: Purified IIb/IIIa receptor assay (solid phase receptor assay, competition with biotinylated vitronectin)
Details: purified receptor from outdated platelets; 1 nM biotinylated vitronectin; highest concentration tested 1.0 x 10^-4 M
Where a name gives a salt, the structure may show the parent alone.
Numbers only, in nM.

Use the examples below as a reference point.
compound	reported-endpoint	uom	val
O=C(O)CCc1ccc(NC(=O)c2cccc(NC3=NCCCN3)c2)cc1C(=O)O [Example 102, trifluoroacetate salt]	IC50	nM	4710
CC(C)CC(=O)NC(Cc1ccc(NC(=O)c2cc(NC(=N)N)cc(C(F)(F)F)c2)cc1)C(=O)O (stereo not shown) [Example 108, trifluoroacetate salt]	IC50	nM	109
CS(=O)(=O)NC(Cc1ccc(NC(=O)c2cccc(NC(=N)N)c2)cc1)C(=O)O (stereo not shown) [Example 48, trifluoroacetate salt]	IC50	nM	15.6

I'm hoping you can list IC50 for every compound here, please.
1. N=C(N)Nc1cccc(C(=O)Nc2ccc(SCC(=O)O)cc2)c1 [Example 82]
2. N=C(N)Nc1cccc(C(=O)Nc2ccc(CC(C(=O)O)C(=O)O)cc2)c1 [Example 120]
3. CC(C)(C)OC(=O)N[C@@H](Cc1ccc(NC(=O)c2cccc(NC(=N)N)c2)cc1)C(=O)O [Example 56, trifluoroacetate salt]
4. N#CN=C(NCc1ccccc1)Nc1cccc(C(=O)Nc2ccc(CCC(=O)O)cc2)c1 [Example 79]

332
384
6.35
10200

I'm hoping you can list IC50 for every compound here, please.
1. N=C(N)Nc1cccc(C(=O)Nc2ccc(CC(NS(=O)(=O)c3ccccc3)C(=O)O)cc2)c1 (stereo not shown) [Example 51, trifluoroacetate salt]
2. CCCCS(=O)(=O)NC(Cc1ccc(NC(=O)c2cccc(NC(=N)N)c2)cc1)C(=O)O (stereo not shown) [Example 52, trifluoroacetate salt]
3. COc1cc(NC(=O)c2cccc(NC3=NCCCN3)c2)ccc1C[C@H](NC(=O)OC(C)C)C(=O)O [Example 114, trifluoroacetate salt]

1. 0.71
2. 1.88
3. 1000

###

Target: Human vitronectin receptor (αvβ3) (Homo sapiens, UniProt P05106+P06756)
Construct: Human vitronectin receptor (αvβ3) was purified from human placenta; from tissue; host or cells: human placenta
Assay: Vitronectin adhesion assay (solid phase receptor assay, competition with biotinylated vitronectin)
Type: binding
Conditions: purified receptor from human placenta; 1 nM biotinylated vitronectin; highest concentration tested 1.0 x 10^-4 M; read-out: AvB3 IC50
Structures can show the parent of a compound that is named as a salt.
reported-endpoint: IC50
Please give the number followed by its unit.

compound	IC50
N=C(N)Nc1cccc(C(=O)Nc2ccc(CC(NC(=O)N3CCOCC3)C(=O)O)cc2)c1 (stereo not shown) [Example 125, bis(trifluoroacetate) salt, monohydrate]	7 nM
O=C(O)CCc1ccc(NC(=O)c2cccc(NC(=O)NCc3ccccc3)c2)cc1 [Example 28]	555 nM
CCOC(=O)C(Cc1ccc(NC(=O)c2cccc(NC(=N)N)c2)cc1)NC(C)=O (stereo not shown) [Example 34, trifluoroacetate salt]	45.2 nM

Below: the item to evaluate.
Documented IC50 of N=C(N)Nc1cccc(C(=O)Nc2ccc(CC(NS(=O)(=O)c3cc(Cl)cc(Cl)c3)C(=O)O)cc2)c1 (stereo not shown) [Example 122, trifluoroacetate salt] : 7 nM
